Data provenance is PubChem BioAssay (NCI).

- Experiment: NCI Yeast Anticancer Drug Screen. Data for the mlh1 rad18 strain (AID 175)
- Condition: S. cerevisiae mlh1 rad18 strain growth inhibition; at 50.0 µM; hits give high values
Compounds without any hit were thinned out: in the full panel of roughly 79,000, 15% have a hit.

Compound: Oc1ccccc1C=Nc1ccc(N2CCOCC2)cc1
growth inhibition [%]: -2.35
//
Compound: O=[N+]([O-])c1cccc(S(=O)(=O)O)c1 (tested in a mixture with another compound)
growth inhibition [%]: -4.95
//
Compound: COC(=O)C1c2ccccc2CC(=O)N1N (stereo not drawn)
growth inhibition [%]: 9.15
//
Compound: CC1=C(/C=C/C(C)=C/C=C/C(C)=C/C=C/C=C(C)/C=C/C=C(\C)C=O)C(C)(C)CCC1
growth inhibition [%]: 0.8
//
Compound: CCN(CC)c1cc(-c2ccccc2)oc(=O)c1Cl
growth inhibition [%]: 20.6
//
Compound: NC(=O)C1C2C=CC(O2)C1C(=O)O (stereo not drawn)
growth inhibition [%]: 5.4
//
Compound: O=C(Nc1ccc(CCO)cc1)Nc1ccc(Cl)cc1[N+](=O)[O-]
growth inhibition [%]: 17.6
//
Compound: O=C1c2ccccc2-c2c1c1ccccc1c(=O)n2Cc1ccccc1
growth inhibition [%]: -63.8
